- assay: Cytotoxicity against human H69AR cells overexpressing MRP1 assessed as growth inhibition after 72 hrs by MTT assay
- Type: cell-based
Entries and their measured GI50 at 72 h follow.
Return type: number; implicit unit µM.

Examples with their reported GI50 at 72 h follow.
- smilesString: "N#Cc1c2n(c3c(NCCCc4ccccc4)ncnc13)CCCC2"
  GI50 at 72 h [µM]: 132
- smilesString: "N#Cc1cn(-c2ccccc2)c2c(N3CCN(CCc4ccccc4)CC3)ncnc12"
  GI50 at 72 h [µM]: 23.6
- smilesString: "N#Cc1c2n(c3c(N4CCN(CCc5ccccc5)CC4)ncnc13)CCCCC2"
  GI50 at 72 h [µM]: 79.8
- smilesString: "N#Cc1c2n(c3c(N4CCNCC4)ncnc13)CCCC2"
  GI50 at 72 h [µM]: 60.6
- smilesString: "N#Cc1cn(C2CC2)c2c(N3CCN(CCc4ccccc4)CC3)ncnc12"
  GI50 at 72 h [µM]: 36

Challenge: # return recorded GI50 at 72 h for input N#Cc1c2n(c3c(N4CCN(CCc5ccccc5)CC4)ncnc13)CCCC2
Response given: 39.9
